Origin of measurements: patent US11661431B2

- subject.of.test: TLR7 (Homo sapiens (Human), UniProt Q9NYK1)
- Sequence (Q9NYK1 27-1049): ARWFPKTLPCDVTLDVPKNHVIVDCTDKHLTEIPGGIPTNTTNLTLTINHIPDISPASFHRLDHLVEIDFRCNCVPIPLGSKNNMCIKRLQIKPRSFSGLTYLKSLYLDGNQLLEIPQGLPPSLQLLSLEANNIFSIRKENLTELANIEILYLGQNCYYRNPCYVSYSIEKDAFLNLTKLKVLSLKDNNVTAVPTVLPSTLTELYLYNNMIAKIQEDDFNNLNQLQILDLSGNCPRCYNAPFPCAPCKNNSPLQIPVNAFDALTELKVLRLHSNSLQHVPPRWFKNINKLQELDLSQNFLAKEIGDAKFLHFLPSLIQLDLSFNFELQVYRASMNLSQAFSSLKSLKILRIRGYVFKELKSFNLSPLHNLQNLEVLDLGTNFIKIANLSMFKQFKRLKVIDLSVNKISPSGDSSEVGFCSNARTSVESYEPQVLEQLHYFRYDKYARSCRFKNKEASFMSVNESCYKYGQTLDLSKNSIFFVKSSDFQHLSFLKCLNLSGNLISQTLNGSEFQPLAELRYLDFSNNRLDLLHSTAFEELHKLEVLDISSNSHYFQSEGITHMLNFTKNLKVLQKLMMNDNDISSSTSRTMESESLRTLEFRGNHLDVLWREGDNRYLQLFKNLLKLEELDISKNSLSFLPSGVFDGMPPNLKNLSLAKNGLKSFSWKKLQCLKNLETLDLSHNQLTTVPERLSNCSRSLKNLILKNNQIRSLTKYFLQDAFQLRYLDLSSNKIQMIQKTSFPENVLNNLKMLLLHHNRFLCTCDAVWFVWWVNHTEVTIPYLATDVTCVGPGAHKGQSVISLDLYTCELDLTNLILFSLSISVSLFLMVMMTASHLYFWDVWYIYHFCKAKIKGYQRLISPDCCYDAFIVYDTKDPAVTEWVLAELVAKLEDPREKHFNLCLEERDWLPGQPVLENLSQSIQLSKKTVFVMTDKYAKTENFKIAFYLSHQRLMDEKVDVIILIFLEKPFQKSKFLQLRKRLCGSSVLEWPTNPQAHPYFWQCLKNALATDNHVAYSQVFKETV
- assay.protocol: TLR7 human peripheral blood mononuclear cell (PBMC) cell-based assay (GS-986 as agonist; IL-6 and IFNα readout)
- condition.description: human PBMCs, TLR7 agonist GS-986 at 400 nM, 6 hours, antagonist potency; read-out: TLR-7 EC50
metric.name: EC50 (nM)
Please state the figure in nM; there is no need to write the unit.

Solved cases (2 shown):
# EC50 of Cc1c(C23CC2CN(CC(N)=O)C3)sc2[nH]c(-c3cc(C)c4ncnn4c3)c(C(C)C)c12 (stereo not shown) [Example 197] = 1.74

# EC50 of COc1cc(-c2[nH]c3sc(C4CCNCC4)c(C)c3c2C(C)C)cn2ncnc12 [Example 246] = 0.09

Field: next compound
# EC50 of Cc1c(C2CC3(CCCNC3)C2)sc2[nH]c(-c3cc(C)c4ncnn4c3)c(C(C)C)c12 (stereo not shown) [Example 137] = 0.73

----------
- subject.of.test: TLR7 (Homo sapiens (Human), UniProt Q9NYK1)
- assay.protocol: TLR7 human peripheral blood mononuclear cell (PBMC) cell-based assay (GS-986 as agonist; IL-6 and IFNα readout)
- condition.description: human PBMCs, TLR7 agonist GS-986 at 400 nM, 6 hours, antagonist potency; read-out: TLR-7 EC50
Label scheme for EC50: bottom (below 0.1 nM), middle (0.1 nM to below 0.6 nM), top (0.6 nM or more)

Past entries and their recorded results:
q: # bin lookup: classify Cc1c(C23CCNCC2C3(F)F)sc2[nH]c(-c3cc(C)c4ncnn4c3)c(C(C)C)c12 (centres unmarked) [Example 204] by its EC50
a: middle

q: # bin lookup: classify Cc1c(-c2[nH]c3sc([C@@H]4C[C@@H]5C[C@H]4CN5C(=O)[C@@H]4C[C@H](F)CN4)c(C)c3c2C(C)C)cn2ncnc2c1C [Example 149] by its EC50
a: top

q: # bin lookup: classify COc1cc(-c2[nH]c3cc(C4CCNCC4)sc3c2C(C)C)cn2ncnc12 [Example B-1, reference compound] by its EC50
a: middle

q: # bin lookup: classify Cc1c(-c2[nH]c3sc(C45CCN(CC(N)=O)CC4C5)c(C)c3c2C(C)C)cn2ncnc2c1C (single isomer, unassigned) [Example 102] by its EC50
a: bottom

q: # bin lookup: classify CCc1c(C2CCNCC2)sc2[nH]c(-c3cc(C)c4ncnn4c3)c(C(C)C)c12 [Example 277] by its EC50
a: bottom

Continuing:
q: # bin lookup: classify Cc1cc(-c2[nH]c3sc([C@H]4C[C@@]5(CCN(CC(N)=O)C5)C4)c(C)c3c2C(C)C)cn2ncnc12 [Example 126] by its EC50
a: middle

q: # bin lookup: classify Cc1c(C23CNCCC2C3)sc2[nH]c(-c3cc(C)c4ncnn4c3)c(C(C)C)c12 (centres unmarked) [Example 194] by its EC50
a: middle

q: # bin lookup: classify Cc1c(-c2[nH]c3sc([C@H]4C[C@@H]5CC[C@H]4CN5Cc4cn(C)nn4)c(C)c3c2C(C)C)cn2ncnc2c1C (single isomer, unassigned) [Example 215] by its EC50
a: bottom

q: # bin lookup: classify Cc1c(-c2[nH]c3sc(C4CCN(C(=O)[C@H]5C[C@@]6(CN(C)CCO6)C5)CC4)c(C)c3c2C(C)C)cn2ncnc2c1C [Example 296] by its EC50
a: bottom

q: # bin lookup: classify Cc1c(-c2[nH]c3sc(C4CC5(C4)CN(CC(N)=O)C5)c(C)c3c2C(C)C)cn2ncnc2c1C [Example 31] by its EC50
a: top

q: # bin lookup: classify Cc1c(-c2[nH]c3sc(C4CCN(C(=O)C5COC(C(F)(F)F)CN5)CC4)c(C)c3c2C(C)C)cn2ncnc2c1C (centres unmarked) [Example 283] by its EC50
a: top
